Numbers sourced from patent US20250000991A1.

Catalogue of binders with associated Average Max MFI
Target: T1, human nectin-4 on cells (human, UniProt Q96NY8 32-510)
T1 construct: also called Nectin-4 receptor
T1 sequence: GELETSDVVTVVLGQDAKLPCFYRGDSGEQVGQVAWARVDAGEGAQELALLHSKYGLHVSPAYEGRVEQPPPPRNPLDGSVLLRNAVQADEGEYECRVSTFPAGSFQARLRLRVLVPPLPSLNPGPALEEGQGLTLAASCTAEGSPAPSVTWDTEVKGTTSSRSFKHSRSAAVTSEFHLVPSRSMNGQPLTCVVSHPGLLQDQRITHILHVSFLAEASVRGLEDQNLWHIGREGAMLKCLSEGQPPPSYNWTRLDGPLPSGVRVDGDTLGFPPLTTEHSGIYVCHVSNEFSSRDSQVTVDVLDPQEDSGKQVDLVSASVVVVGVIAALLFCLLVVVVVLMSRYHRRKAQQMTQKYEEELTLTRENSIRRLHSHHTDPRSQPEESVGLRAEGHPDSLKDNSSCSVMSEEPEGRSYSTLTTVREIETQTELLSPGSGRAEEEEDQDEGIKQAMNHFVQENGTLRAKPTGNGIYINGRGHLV
Assay: flow cytometry, SUM190PT cells (high endogenous nectin-4)

binder	Average Max MFI / MFI
Ab6 (antibody, human IgG1, lambda, L234A L235A, V domains shown, Unconjugated antibody; also called Antibody 6; nectin-4 antibody Ab6) VH: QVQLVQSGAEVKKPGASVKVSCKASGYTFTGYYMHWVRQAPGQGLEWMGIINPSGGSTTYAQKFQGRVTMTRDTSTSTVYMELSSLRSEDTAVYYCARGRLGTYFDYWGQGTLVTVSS VL: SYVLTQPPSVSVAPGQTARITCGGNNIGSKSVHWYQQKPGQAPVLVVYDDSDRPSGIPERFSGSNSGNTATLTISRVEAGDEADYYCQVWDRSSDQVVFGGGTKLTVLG	1.3e+06
enfortumab (antibody, V domains shown) VH: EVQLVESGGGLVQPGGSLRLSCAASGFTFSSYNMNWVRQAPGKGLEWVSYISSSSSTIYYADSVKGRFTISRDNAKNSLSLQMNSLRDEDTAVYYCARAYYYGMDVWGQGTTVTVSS VL: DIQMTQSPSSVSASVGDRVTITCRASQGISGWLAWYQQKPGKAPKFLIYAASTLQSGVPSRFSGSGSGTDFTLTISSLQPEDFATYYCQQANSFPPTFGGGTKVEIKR	1.1e+06
Ab7 (antibody, human IgG1, lambda, L234A L235A, V domains shown, Unconjugated antibody; also called Antibody 7; nectin-4 antibody Ab7) VH: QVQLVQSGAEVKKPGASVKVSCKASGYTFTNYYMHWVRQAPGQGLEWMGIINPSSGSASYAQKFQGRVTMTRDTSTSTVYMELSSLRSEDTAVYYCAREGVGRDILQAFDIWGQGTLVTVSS VL: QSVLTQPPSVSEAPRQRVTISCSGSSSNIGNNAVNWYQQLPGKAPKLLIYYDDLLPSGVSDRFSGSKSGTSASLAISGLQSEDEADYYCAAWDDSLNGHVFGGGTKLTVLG	1.2e+06
Ab1a (antibody, human IgG1, kappa, L234A L235A, V domains shown, Unconjugated antibody; also called nectin-4 antibody Ab1a) VH: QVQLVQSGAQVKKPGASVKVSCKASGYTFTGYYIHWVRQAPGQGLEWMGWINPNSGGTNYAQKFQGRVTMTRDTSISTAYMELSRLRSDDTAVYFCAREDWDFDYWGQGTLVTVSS VL: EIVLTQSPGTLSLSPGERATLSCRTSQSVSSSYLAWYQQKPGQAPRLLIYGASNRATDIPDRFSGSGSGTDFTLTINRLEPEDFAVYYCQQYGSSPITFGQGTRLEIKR	590000
Ab4 (antibody, human IgG1, kappa, L234A L235A, V domains shown, Unconjugated antibody; also called Antibody 4) VH: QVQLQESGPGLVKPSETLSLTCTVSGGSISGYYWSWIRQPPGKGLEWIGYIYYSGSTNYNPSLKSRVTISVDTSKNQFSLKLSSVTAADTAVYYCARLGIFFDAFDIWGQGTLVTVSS VL: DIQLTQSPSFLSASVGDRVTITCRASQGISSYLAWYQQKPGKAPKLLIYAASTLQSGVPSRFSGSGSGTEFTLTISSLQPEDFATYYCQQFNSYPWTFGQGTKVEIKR	1e+06
Ab5 (antibody, human IgG1, kappa, L234A L235A, V domains shown, Unconjugated antibody; also called Antibody 5; nectin-4 antibody Ab5) VH: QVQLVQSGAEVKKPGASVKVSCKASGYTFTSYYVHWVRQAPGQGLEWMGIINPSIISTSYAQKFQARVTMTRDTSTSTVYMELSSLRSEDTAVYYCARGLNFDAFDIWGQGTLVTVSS VL: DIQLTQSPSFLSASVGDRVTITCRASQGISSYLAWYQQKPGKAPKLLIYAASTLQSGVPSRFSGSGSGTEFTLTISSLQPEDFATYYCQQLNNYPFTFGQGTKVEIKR	1.5e+06
